Data credit: patent US20090192164A1

experiment: Compounds' extinction rates in human liver S9; format: in vitro ADME; conditions: human liver S9 0.5 mg protein/mL, compound 1 μmol/L, 37° C.
Readout Kind: Parent compound remaining after 5 min in human liver S9 (%)

{"Structure String": "Cc1cccc(-c2noc(NC(=O)Cc3ccccc3Cl)c2-c2ccncn2)c1", "Reported": 21.2}

P. Cc1cccc(-c2noc(NC(=O)CCc3ccccc3C)c2-c2ccncc2)c1
Q. O=C(Cc1ccccc1Cl)Nc1onc(-c2ccc(Cl)cc2)c1-c1ccncn1
(Q) Returns: the argument ( P or Q ) having the larger Parent compound remaining after 5 min in human liver S9 (%). State the label of the item chosen.
(A) Q
(Q: 53.1%, P: 23.3%)

---

experiment: Compounds' extinction rates in human liver S9; type: in vitro ADME; settings: human liver S9 0.5 mg protein/mL, compound 1 μmol/L, 37° C.
Readout Kind: Parent compound remaining after 5 min in human liver S9 (%)

Sample answers from the record:
{"Molecule": "COc1ccc(-c2noc(NC(=O)Cc3ccccc3Cl)c2-c2ccncn2)c(F)c1 [Compound B-6]", "Reported": 24.1}
{"Molecule": "Cc1ccc(F)c(-c2noc(NC(=O)Cc3ccccc3)c2-c2ccncn2)c1 [Compound B-11]", "Reported": 39.8}
{"Molecule": "Cc1cc(-c2noc(NC(=O)Cc3ccccc3Cl)c2-c2ccncc2)ccc1F [Compound B-18]", "Reported": 59.7}
{"Molecule": "Cc1cccc(CC(=O)Nc2onc(-c3ccc(F)cc3F)c2-c2ccncn2)c1 [Compound B-5]", "Reported": 46.6}
{"Molecule": "CCCn1nc(-c2ccc(F)cc2)c(-c2ccncc2)c1C(=O)OCc1ccccc1Cl [Compound B-20]", "Reported": 77.0}
{"Molecule": "Cc1ccc(F)c(-c2noc(NC(=O)CCc3cccc(Cl)c3)c2-c2ccncc2)c1 [Compound B-16]", "Reported": 50.5}
{"Molecule": "Cc1cccc(-c2noc(NC(=O)CCc3ccccc3)c2-c2ccncc2)c1 [Compound B-14]", "Reported": 17.6}
{"Molecule": "Cc1cccc(-c2nn(C)c(COC(=O)c3ccccc3)c2-c2ccncc2)c1 [Compound B-22]", "Reported": 25.5}
{"Molecule": "CCn1nc(-c2ccc(F)cc2)c(-c2ccncn2)c1C(=O)OCc1ccc(Cl)cc1Cl [Compound B-21]", "Reported": 56.4}
{"Molecule": "O=C(Cc1c(F)cccc1Cl)Nc1onc(-c2ccc(F)cc2)c1-c1ccncn1 [Compound B-2]", "Reported": 16.1}

I. Cc1cc(-c2noc(NC(=O)CCc3ccccc3)c2-c2ccncc2)ccc1F [Compound B-19]
II. Cc1cccc(-c2noc(NC(=O)Cc3ccccc3C)c2-c2ccncn2)c1 [Compound B-9]
III. O=C(Cc1ccccc1Cl)Nc1onc(-c2ccc(F)cc2)c1-c1ccncn1 [Compound B-1]
IV. COc1cccc(CC(=O)Nc2onc(-c3ccc(F)c(C)c3)c2-c2ccncn2)c1 [Compound B-12]
(Q) Falling order of Parent compound remaining after 5 min in human liver S9 (%), please. Respond with the label ranking, as requested.
(A) II, IV, I, III
(II: 59.9%, IV: 33.1%, I: 20.1%, III: 5.8%)

---

experiment: Compounds' extinction rates in human liver S9; type: in vitro ADME; details: human liver S9 0.5 mg protein/mL, compound 1 μmol/L, 37° C.
Readout Kind: Parent compound remaining after 5 min in human liver S9 (%)

Sample answers from the record:
{"Structure String": "CCn1nc(-c2cccc(C)c2)c(-c2ccncc2)c1COC(=O)c1ccccc1", "Reported": 28.3}
{"Structure String": "Cc1cc(-c2noc(NC(=O)Cc3ccccc3C)c2-c2ccncn2)ccc1F", "Reported": 52.6}
{"Structure String": "Cc1cccc(-c2noc(NC(=O)Cc3ccccc3Br)c2-c2ccncn2)c1", "Reported": 43.6}

P. Cc1cccc(CC(=O)Nc2onc(-c3cccc(C)c3)c2-c2ccncn2)c1
Q. Cc1cc(-c2noc(NC(=O)Cc3ccccc3)c2-c2ccncc2)ccc1F
(Q) Which gives the smaller Parent compound remaining after 5 min in human liver S9 (%) number: P or Q ? State the label of the item chosen.
(A) P
